Assign pIC50 to each entry below.
# study_system: Factor D (Homo sapiens (Human))
# Sequence (P00746 26-253): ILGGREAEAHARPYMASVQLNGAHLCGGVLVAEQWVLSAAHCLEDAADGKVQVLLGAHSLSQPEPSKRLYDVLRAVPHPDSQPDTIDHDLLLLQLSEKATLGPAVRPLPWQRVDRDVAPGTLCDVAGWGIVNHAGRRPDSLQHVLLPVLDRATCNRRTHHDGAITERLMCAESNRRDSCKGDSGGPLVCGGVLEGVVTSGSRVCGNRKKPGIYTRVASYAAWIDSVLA
# assay_info: biochemical
# Assay type: biochemical
# test_settings: read-out: IC50
Numbers only, as −log10 of the molar value.

Let me know recorded pIC50 for `NC(=O)c1nn(CC(=O)N2[C@@H]3C[C@@H]3C[C@H]2C(=O)NCc2cccc(Cl)c2F)c2cnc(C3CC3)cc12` , thanks.
8.22

// fetch pIC50 given entry `NC(=O)n1cc(NC(=O)N2C[C@H]3C[C@H]3[C@H]2C(=O)NCc2cccc(Cl)c2F)c2ccccc21`
7.66

# return recorded pIC50 for entry `CC(=O)c1cn(CC(=O)N2C[C@H](F)C[C@H]2C(=O)NCc2cccc(Cl)c2F)c2cc(OCc3nn[nH]n3)ccc12`
6.88

Please find the next molecule below.
Provide pIC50 value for the following molecule: `NC(=O)n1cc(NC(=O)N2CC3(CC3)C[C@H]2C(=O)NCc2cccc(Cl)c2)c2ccccc21`
6.19
